test-method-notes: chemical genetic growth profiling, strain panel (AID 1159580);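 note: tested at 20 µM; growth read once vehicle control cultures reached saturation at 30 °C; lower values mean less growth of the strain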
assay-context: S. cerevisiae deletion strains, growth OD, locus YGL227W, strain vid30
About 2,000 (36%) of roughly 5,500 compounds were called active. Not shown: some 18% with an inconclusive outcome. Cut-off read from the data, not from the text of the source: active = normalized growth mostly below about 0.91 (no sharp cut-off); inconclusive = no clear call, values can overlap the other calls; inactive = mostly above about 0.92. Some of the results follow.
The reply should name one outcome from active, inactive

Example entries and their recorded answers appear below.
1. C[C@@H]1CC[C@H]2[C@@H](C)C(=O)O[C@@H]3O[C@@]4(C)CC[C@@H]1[C@]32OO4    inactive
2. NC(N)=N/N=C/c1c(Cl)cccc1Cl    inactive

Prompt: Just curious, what result did Nc1ccccc1C(=O)CC(N)C(=O)O (centres undefined) get here?
Completion: inactive

Prompt: Just curious, what result did C[C@@H]1CC[C@H]2[C@@H](C)C(O)O[C@@H]3O[C@@]4(C)CC[C@@H]1[C@]32OO4 (some centres undefined) get here?
Completion: active

Prompt: Just curious, what result did CC1(C)CC[C@]2(C)CC[C@]3(C)C(=CCC4[C@@]5(C)CC[C@H](O)C(C)(C)C5CC[C@]43C)C2C1 (some centres undefined) get here?
Completion: inactive

Prompt: Just curious, what result did NCCC(=O)N[C@@H](Cc1cnc[nH]1)C(=O)O get here?
Completion: inactive

Prompt: Just curious, what result did CC1(C)CC[C@]2(C(=O)O)CC[C@]3(C)C(=CCC4[C@@]5(C)CC[C@@H](O)C(C)(C)C5CC[C@]43C)C2C1 (some centres undefined) get here?
Completion: inactive

Prompt: Just curious, what result did CCOC(=O)OC(C)OC(=O)C1N2C(=O)C(NC(=O)[C@H](N)c3ccccc3)C2SC1(C)C (some centres undefined) get here?
Completion: inactive

Prompt: Just curious, what result did C[C@@H]1CC[C@]2(C(=O)O)CC[C@]3(C)C(=CCC4[C@@]5(C)CC[C@H](O)C(C)(C)C5CC[C@]43C)C2[C@H]1C (some centres undefined) get here?
Completion: inactive

----------
test-method-notes: chemical genetic growth profiling, strain panel (AID 1159580);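 note: tested at 20 µM; growth read once vehicle control cultures reached saturation at 30 °C; lower values mean less growth of the strain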
assay-context: S. cerevisiae deletion strains, growth OD, locus YMR058W, strain fet3
About 2,000 (36%) of roughly 5,500 compounds were called active. Roughly 18% stayed inconclusive and do not appear here. Cut-off read from the data, not from the text of the source: active = normalized growth mostly below about 0.91 (no sharp cut-off); inconclusive = no clear call, values can overlap the other calls; inactive = mostly above about 0.92. The list shows a part of the results.
The reply should name one outcome from TRUE = active, FALSE = inactive

Example entries and their recorded answers appear below.
1) COc1cccc2c1C(=O)c1c(O)c3c(c(O)c1C2=O)C[C@@](O)(C(=O)CO)C[C@@H]3OC1C[C@H](N)[C@H](O)[C@H](C)O1 (stereo not given in full)    TRUE
2) O=C(CNC(=O)c1ccc(Cl)cc1)NO    FALSE
3) CC1(C)CC[C@]2(C)CC[C@]3(C)C(=CCC4[C@@]5(C)CC[C@H](O)C(C)(C)C5CC[C@]43C)C2C1 (stereo not given in full)    FALSE
4) Nc1ccc(S(=O)(=O)Nc2cnc3ccccc3n2)cc1    FALSE
5) CC(=O)NC(C(=O)O)C(C)(C)SN=O (stereo not given)    FALSE
6) CC(C)CC(N(C)C)C1(c2ccc(Cl)cc2)CCC1 (stereo not given)    FALSE
7) COc1ccc2c(c1)c(CC(=O)OCC(=O)O)c(C)n2C(=O)c1ccc(Cl)cc1    FALSE
8) COC1=C[C@@H]2[C@@H]3Cc4ccc(OC)c(O)c4[C@]2(CCN3C)CC1=O    FALSE
9) COc1cc(C(=O)O[C@H]2CC[C@@]3(C)[C@@H]4CC[C@H]5[C@]6(O)C[C@H](O)[C@@]7(O)[C@@H](CN8C[C@@H](C)CC[C@H]8[C@@]7(C)O)[C@]6(O)C[C@@]53O[C@]24O)cc(OC)c1OC    FALSE
10) NC(N)=N/N=C/c1c(Cl)cccc1Cl    FALSE

Prompt: Just curious, what result did NC(Cc1c[nH]c2ccccc12)C(=O)O (stereo not given) get here?
Completion: FALSE

Prompt: Just curious, what result did CC1(C)CC[C@]2(C(=O)O)CC[C@]3(C)C(=CCC4[C@@]5(C)CC[C@@H](O)C(C)(C)C5CC[C@]43C)C2C1 (stereo not given in full) get here?
Completion: FALSE

Prompt: Just curious, what result did N#CC(O[C@@H]1O[C@H](CO[C@@H]2O[C@H](CO)[C@@H](O)[C@H](O)[C@H]2O)[C@@H](O)[C@H](O)[C@H]1O)c1ccccc1 (stereo not given in full) get here?
Completion: FALSE

Prompt: Just curious, what result did CC(C)CCCC1(C)C=Cc2c(O)c3c(c(CCC(C)C)c2O1)OC12C(CC4CC1C(C)(C)OC2(CCC(C)C(=O)O)C4O)C3=O (stereo not given) get here?
Completion: FALSE

Prompt: Just curious, what result did CC(C)(C#N)O[C@@H]1O[C@H](CO)[C@@H](O)[C@H](O)[C@H]1O get here?
Completion: FALSE

Prompt: Just curious, what result did NC12CC3CC(CC(C3)C1)C2 get here?
Completion: FALSE

Prompt: Just curious, what result did COc1ccc2c(c1)c(CC(=O)O)c(C)n2C(=O)c1ccc(Cl)cc1 get here?
Completion: FALSE

Prompt: Just curious, what result did CNCc1ccccc1 get here?
Completion: FALSE

Prompt: Just curious, what result did Nc1ccc(S(=O)(=O)c2ccc(N)cc2)cc1 get here?
Completion: FALSE

Prompt: Just curious, what result did O=c1oc2cc(O)ccc2s1 get here?
Completion: FALSE

Data origin: PubChem BioAssay AID1159580
